# assay-details: Mouse Oral Pharmacokinetic Study
# Assay type: in vivo
# experimental-parameters: mouse; male CD1 mice, oral gavage 10 mg/kg, plasma at 4 h; read-out: Cpasma@4h
outcome-measure: concentration at 4 h (µg/mL)

1) CC(C)[C@@H](C)Nc1c(-c2c(F)cc(F)cc2F)c(Cl)nc2ncnn12 [Intermediate 4, reference compound]: 0.003
2) C[C@H](Nc1c(-c2c(F)cc(OCC3[C@H]4CN(C)C[C@@H]34)cc2F)c(Cl)nc2ncnn12)C(F)(F)F (stereo partly drawn): 0.137
3) C[C@H](Nc1c(-c2c(F)cc(C#CC3[C@H]4CN(C)C[C@@H]34)cc2F)c(Cl)nc2ncnn12)C(F)(F)F (stereo partly drawn): 0.359

----------
# assay-details: Mouse Oral Pharmacokinetic Study
# Type: in vivo
# experimental-parameters: mouse; male CD1 mice, oral gavage 10 mg/kg, plasma; read-out: Cmax
outcome-measure: Cmax (ng/mL)

1. Cc1nc2ncnn2c(NCC(F)(F)F)c1-c1c(F)cc(OC[C@@H]2[C@H]3CN(C)C[C@@H]23)cc1F: 379
2. C[C@@H](Nc1c(-c2c(F)cc(C#C[C@@H]3[C@H]4CN(C)C[C@@H]34)cc2F)c(Cl)nc2ncnn12)C1CCC1: 572
3. Cc1nc2ncnn2c(N[C@H](C)C(C)C)c1-c1c(F)cc(OCC2[C@H]3CN(C)C[C@@H]23)cc1F (stereo partly shown): 161
4. C[C@H](Nc1c(-c2c(F)cc(OCC3[C@H]4CNC[C@@H]34)cc2F)c(Cl)nc2ncnn12)C(F)(F)F (stereo partly shown): 2640

----------
# assay-details: Mouse Oral Pharmacokinetic Study
# Assay type: in vivo
# experimental-parameters: mouse; male CD1 mice, oral gavage 10 mg/kg, plasma; read-out: Tmax
Items are presented alongside their recorded Tmax.
outcome-measure: Tmax (min)

1) CN1C[C@@H]2[C@@H](/C=C/c3cc(F)c(-c4c(Cl)nc5ncnn5c4NCC(F)(F)F)c(F)c3)[C@@H]2C1: 60
2) CC(C)[C@@H](C)Nc1c(-c2c(F)cc(F)cc2F)c(Cl)nc2ncnn12 [Intermediate 4, reference compound]: 30
3) C[C@H](Nc1c(-c2c(F)cc(OCC3[C@H]4CNC[C@@H]34)cc2F)c(Cl)nc2ncnn12)C(F)(F)F (stereo partly shown): 45
4) Cc1nc2ncnn2c(NCC(F)(F)F)c1-c1c(F)cc(OC[C@@H]2[C@H]3CN(C)C[C@@H]23)cc1F: 30

----------
# assay-details: Mouse Oral Pharmacokinetic Study
# Assay type: in vivo
# experimental-parameters: mouse; male CD1 mice, oral gavage 10 mg/kg, brain tissue at 4 h; read-out: Cbrain@4h
Decide using concentration at 4 h: a value greater than or equal to 200 ng/mL is true (1), a smaller one is false (0).

1) CC(C)[C@@H](C)Nc1c(-c2c(F)cc(C#C[C@@H]3[C@H]4CN(C)C[C@@H]34)cc2F)c(Cl)nc2ncnn12: true (1)
2) Cc1nc2ncnn2c(N[C@H](C)C(C)C)c1-c1c(F)cc(OCC2[C@H]3CN(C)C[C@@H]23)cc1F (stereo partly shown): false (0)
3) CC(C)[C@@H](C)Nc1c(-c2c(F)cc(F)cc2F)c(Cl)nc2ncnn12 [Intermediate 4, reference compound]: false (0)
4) C[C@H](Nc1c(-c2c(F)cc(C#CC3[C@H]4CN(C)C[C@@H]34)cc2F)c(Cl)nc2ncnn12)C(F)(F)F (stereo partly shown): true (1)
5) Cc1nc2ncnn2c(NCC(F)(F)F)c1-c1c(F)cc(OC[C@@H]2[C@H]3CN(C)C[C@@H]23)cc1F: false (0)
6) CNC1CC2(C1)CC(Oc1cc(F)c(-c3c(Cl)nc4ncnn4c3N[C@@H](C)C(F)(F)F)c(F)c1)C2 (stereo partly shown): true (1)
7) C[C@@H](Nc1c(-c2c(F)cc(C#C[C@@H]3[C@H]4CN(C)C[C@@H]34)cc2F)c(Cl)nc2ncnn12)C1CCC1: true (1)
8) CN1C[C@@H]2[C@@H](/C=C/c3cc(F)c(-c4c(Cl)nc5ncnn5c4NCC(F)(F)F)c(F)c3)[C@@H]2C1: true (1)
9) C[C@H](Nc1c(-c2c(F)cc(OCC3[C@H]4CNC[C@@H]34)cc2F)c(Cl)nc2ncnn12)C(F)(F)F (stereo partly shown): false (0)

----------
# assay-details: Mouse Oral Pharmacokinetic Study
# Assay type: in vivo
# experimental-parameters: mouse; male CD1 mice, oral gavage 10 mg/kg, plasma at 4 h; read-out: Cpasma@4h
outcome-measure: concentration at 4 h (ng/mL)

1. CN1C[C@@H]2[C@@H](/C=C/c3cc(F)c(-c4c(Cl)nc5ncnn5c4NCC(F)(F)F)c(F)c3)[C@@H]2C1 [Example 58]: 62
2. CNC1CC2(C1)CC(Oc1cc(F)c(-c3c(Cl)nc4ncnn4c3N[C@@H](C)C(F)(F)F)c(F)c1)C2 (stereo partly drawn) [Example 11]: 2200
3. C[C@H](Nc1c(-c2c(F)cc(OCC3[C@H]4CNC[C@@H]34)cc2F)c(Cl)nc2ncnn12)C(F)(F)F (stereo partly drawn) [Example 24]: 874

All values here come from patent US20260226064A1.
